- methodDescription: Half life in Sprague-Dawley rat at 10 mg/kg, po
- Assay type: ADME, organism-based
- Set-up: dose 10 mg/kg, route oral
- experimentalConditions: in vivo
Some compounds, each annotated with its measured half-life.
Your answer is read as h, so omit the unit and give the number.

CCCCCCCOC(=O)[C@@]1(F)C[C@@H]1[C@@](N)(CC1c2ccccc2Oc2ccccc21)C(=O)O	3.87

Note to self: half-life recorded for N[C@](CC1c2ccccc2Oc2ccccc21)(C(=O)O)[C@H]1C[C@]1(F)C(=O)O was 5.05

----------
Some compounds, each annotated with its measured pIC50.
- targetSystem: Metabotropic glutamate receptor 2 (Homo sapiens, UniProt Q14416)
- Sequence (Q14416 whole entry): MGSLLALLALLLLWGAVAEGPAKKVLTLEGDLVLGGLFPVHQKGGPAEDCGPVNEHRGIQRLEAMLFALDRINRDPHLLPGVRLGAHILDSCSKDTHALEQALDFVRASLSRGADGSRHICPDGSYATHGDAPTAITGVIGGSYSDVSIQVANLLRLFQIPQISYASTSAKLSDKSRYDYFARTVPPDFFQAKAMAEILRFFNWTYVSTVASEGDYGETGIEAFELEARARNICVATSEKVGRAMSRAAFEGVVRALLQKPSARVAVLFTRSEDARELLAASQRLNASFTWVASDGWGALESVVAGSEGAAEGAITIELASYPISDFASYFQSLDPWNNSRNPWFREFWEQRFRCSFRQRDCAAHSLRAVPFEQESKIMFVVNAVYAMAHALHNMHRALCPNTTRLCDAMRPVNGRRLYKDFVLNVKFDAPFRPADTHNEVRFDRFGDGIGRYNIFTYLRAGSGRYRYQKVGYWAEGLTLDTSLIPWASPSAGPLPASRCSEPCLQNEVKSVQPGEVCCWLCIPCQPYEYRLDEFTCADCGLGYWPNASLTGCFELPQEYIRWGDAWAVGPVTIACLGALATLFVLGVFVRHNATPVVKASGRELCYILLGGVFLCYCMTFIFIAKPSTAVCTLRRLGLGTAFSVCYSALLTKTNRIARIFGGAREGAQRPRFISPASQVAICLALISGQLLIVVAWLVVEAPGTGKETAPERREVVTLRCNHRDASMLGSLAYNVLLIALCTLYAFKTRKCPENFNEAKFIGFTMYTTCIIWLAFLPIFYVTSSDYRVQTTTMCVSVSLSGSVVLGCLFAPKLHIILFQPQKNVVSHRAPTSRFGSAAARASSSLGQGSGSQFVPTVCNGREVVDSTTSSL
- methodDescription: Displacement of [3H]-MGS0008 from mGluR2 expressed in CHO cells
Conceptually, pIC50 converts a concentration in mol/L into minus its log10.

NC(CC1c2ccccc2Oc2ccccc21)(C(=O)O)C1CC1(F)C(=O)O (racemic; form 2)	6.68

Note to self: pIC50 recorded for NC(CC1c2ccccc2Oc2ccccc21)(C(=O)O)C1CC1(F)C(=O)O (racemic; form 1) was 8.35

Note to self: pIC50 recorded for N[C@](CC1c2ccccc2Oc2ccccc21)(C(=O)O)[C@H]1C[C@]1(F)C(=O)O was 8.46

----------
Some compounds, each annotated with its measured Cmax.
- methodDescription: Cmax in Sprague-Dawley rat at 10 mg/kg, po
- Assay type: ADME, organism-based
- Parameters: dose 10 mg/kg, route oral
- experimentalConditions: in vivo
Your answer is read as ng/mL, so omit the unit and give the number.

N[C@](CC1c2ccccc2Oc2ccccc21)(C(=O)O)[C@H]1C[C@]1(F)C(=O)O	308

Note to self: Cmax recorded for CCCCCCCOC(=O)[C@@]1(F)C[C@@H]1[C@@](N)(CC1c2ccccc2Oc2ccccc21)C(=O)O was 8640

----------
- methodDescription: Tmax in Sprague-Dawley rat at 10 mg/kg, po
- Type: ADME, organism-based
- Parameters: dose 10 mg/kg, route oral
- experimentalConditions: in vivo
measuredEndpoint: Tmax (h)
Your answer is read as h, so omit the unit and give the number.

N[C@](CC1c2ccccc2Oc2ccccc21)(C(=O)O)[C@H]1C[C@]1(F)C(=O)O	2.67

Now consider the entry below.
Note to self: Tmax recorded for CCCCCCCOC(=O)[C@@]1(F)C[C@@H]1[C@@](N)(CC1c2ccccc2Oc2ccccc21)C(=O)O was 2

----------
- methodDescription: Transformation of (+)-17 to (+)-16a in monkey liver S9 fraction at 3 uM after 60 mins
- experimentalConditions: rhesus monkey
measuredEndpoint: transformation ratio at 1 h, 3 µM (%)
Your answer is read as %, so omit the unit and give the number.

Note to self: transformation ratio at 1 h, 3 µM recorded for CCCCCCCOC(=O)[C@@]1(F)C[C@@H]1[C@@](N)(CC1c2ccccc2Oc2ccccc21)C(=O)O was 7.3
